- assay: Antioxidant activity assessed as ABTS radical cation scavenging activity by measuring trolox equivalents by spectrophotometric analysis
- Format: functional
Recorded Activity by entry
Answer format: numeric, mMequiv implied, no suffix.

Oc1ccc(-c2cc3c(Br)ccc(O)c3o2)cc1O: 0.12
Oc1cc(-c2cc3ccccc3o2)c(Br)c(O)c1O: 0.97
CCOC(=O)/C=C/c1cc(O)c(O)cc1-c1cc2cccc(O)c2o1: 0.2

Asked: Query (compound): CCOC(=O)/C=C/c1cc(O)c(O)cc1-c1cc2ccccc2o1 ; field requested: Activity
Given back: 0.01

Asked: Query (compound): COC(=O)/C=C/c1ccc(O)c2c1C=Cc1cc(O)c(O)cc1O2 ; field requested: Activity
Given back: 1.48

Asked: Query (compound): CCOC(=O)/C=C/c1ccc(/C=C/c2cc(O)c(O)c(O)c2)cc1 ; field requested: Activity
Given back: 0.14

====

IC50, Cytochrome P450 3A4 (Homo sapiens), per-entry values.
Answer format: numeric, µM implied, no suffix.

The following molecules have reported results that may help.
CCOC(=O)/C=C/c1ccc(/C=C/c2cc(O)c(O)c(O)c2)cc1: 36.2
CCOC(=O)/C=C/c1cc(O)c(O)cc1-c1cc2ccccc2o1: 11.2

Asked: Please tell me: IC50 of CCOC(=O)/C=C/c1cc(O)c2oc(-c3cc(O)c(O)c(O)c3)cc2c1 , system Cytochrome P450 3A4 (Homo sapiens)?
Given back: 21.7

Asked: Please tell me: IC50 of Oc1ccc(-c2cc3cc(Br)cc(O)c3o2)cc1O , system Cytochrome P450 3A4 (Homo sapiens)?
Given back: 23.5

====

- assay: Anti-inflammatory activity in Sprague-Dawley rat primary mixed glial cells assessed as inhibition of LPS-induced NO production at 50 uM pretreated for 2 hrs followed by LPS addition measured after 48 hrs by Griess assay (reference value: 100%)
- Assay type: functional, Primary glial cell
- Set-up: scale not given: the % may be the effect or the level left
metric: Activity (%)
Answer format: numeric, % implied, no suffix.

COc1ccc(Br)c2cc(-c3ccc4c(c3)OCO4)oc12: 202.71
CCOC(=O)/C=C/c1ccc(/C=C/c2cc(O)c(O)c(O)c2)cc1: 72.93
CCOC(=O)/C=C/c1ccc(OC)c(O)c1/C=C/c1cc(OC)c(OC)c(OC)c1: 114.19

Asked: Query (compound): Oc1cc(-c2cc3cc(Br)cc(O)c3o2)cc(O)c1O ; field requested: Activity
Given back: 106.67

Asked: Query (compound): COc1cc(Br)c(/C=C/c2cccc(OC)c2O)cc1OC ; field requested: Activity
Given back: 102.71

Asked: Query (compound): CCOC(=O)/C=C/c1cc(OC)c(OC)cc1/C=C/c1cccc(OC)c1O ; field requested: Activity
Given back: 89.35

====

- Tested on: Cortical neurone
- assay: Neuroprotective activity against fibril amyloid beta (25 to 35)-induced cell death in Sprague-Dawley rat 5 days old neonatal primary cortical neurons assessed as increase in cell viability pretreated for 2 hrs followed by 10 uM fibril amyloid beta (25 to 35) addition measured after 48 hrs by MTT assay
- Assay type: functional, cell-based
Recorded EC50 by entry

The following compounds have reported results that may help.
COc1cc(Br)cc(/C=C/c2ccc3c(c2)OCO3)c1O: > 10 µM
Oc1ccc(-c2cc3c(Br)ccc(O)c3o2)cc1O: 26.7 µM
Oc1cc(-c2cc3ccccc3o2)c(Br)c(O)c1O: > 20 µM
O=C(O)/C=C/c1ccc(O)c2c1C=Cc1cc(O)c(O)cc1O2: 35.7 µM
CCOC(=O)/C=C/c1cc(O)c(O)cc1-c1cc2cccc(O)c2o1: > 50 µM

Asked: Query (compound): CCOC(=O)/C=C/c1cc(O)c(O)cc1-c1cc2ccccc2o1 ; field requested: EC50
Given back: > 50 µM

Asked: Query (compound): CCOC(=O)/C=C/c1cc(O)c2oc(-c3cc(O)c(O)c(O)c3)cc2c1 ; field requested: EC50
Given back: 53 µM

Values compiled from ChEMBL document CHEMBL4043092.
